B1: HDV Ribozyme (parent)
chain: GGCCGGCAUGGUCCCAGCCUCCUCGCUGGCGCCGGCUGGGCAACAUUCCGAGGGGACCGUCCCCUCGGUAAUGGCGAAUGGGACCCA

- Variants of: B1
- assay-procedure: self-cleavage, relative activity (ratio to wild type); higher = more cleavage; co-transcriptional
Each entry below lists one item and its recorded self-cleavage value.
Answer field: number only, no words.

{"columns": ["mutant", "self-cleavage"],
 "data": [
  ["G40C A42G", 0.196],
  ["G40C G74C", 0.0652],
  ["G5U C61G", 0.262]
]}

The measured self-cleavage associated with G25U C57A reads 0.192

The measured self-cleavage associated with G1U C61U reads 0.377

The measured self-cleavage associated with U12A A16C reads 0.499

The measured self-cleavage associated with C15U G39A reads 0.151

The measured self-cleavage associated with G68A U69G reads 0.917

The measured self-cleavage associated with G68U C75A reads 0.234

The measured self-cleavage associated with G81A A87U reads 0.565

The measured self-cleavage associated with G17A C57G reads 0.674

The measured self-cleavage associated with G54U U60G reads 0.989

The measured self-cleavage associated with G34A C61G reads 0.104

The measured self-cleavage associated with G2A C15G reads 0.0277

The measured self-cleavage associated with G34A A43G reads 0.125

The measured self-cleavage associated with U12C G53C reads 0.332

The measured self-cleavage associated with C15G C21G reads 0

The measured self-cleavage associated with U23G U60A reads 0.831

The measured self-cleavage associated with U37G A42U reads 0

The measured self-cleavage associated with C19A U65G reads 0.189

The measured self-cleavage associated with C15U G54C reads 1

The measured self-cleavage associated with C21U G31U reads 0.173

The measured self-cleavage associated with G38U A77C reads 0.0554

The measured self-cleavage associated with C49G A83G reads 0.378

The measured self-cleavage associated with G34A C41U reads 0.217

The measured self-cleavage associated with C19A G29U reads 0.0733
